Each recorded value in this set is attributed to patent US20240180900A1.

- protocolNotes: food/PPI effect on single-dose PK in healthy volunteers (phase 1)
- Type: in vivo, human
- testContext: male, human, plasma, oral, 200 mg, Fed; read-out: Tmax
reportedEndpoint: Tmax (h)
Provide the reading as a plain figure in h.

State the recorded Tmax for this entry: COc1cc(O[C@H]2C(C)(C)[C@H](NC(=O)c3ccc(N4CCC(CN5CCN(c6ccc(C(=O)N[C@H]7CCC(=O)NC7=O)c(F)c6)CC5)CC4)cc3)C2(C)C)ccc1C#N [Compound A]
12

###

- protocolNotes: food/PPI effect on single-dose PK in healthy volunteers (phase 1)
- Type: in vivo, human
- testContext: male, human, plasma, oral, 40 mg Esomeprazole + 300 mg; read-out: AUCinf-Obs, Geometric Mean (Geometric CV %)
reportedEndpoint: AUC(0-inf)

State the recorded AUC(0-inf) for this entry: COc1cc(O[C@H]2C(C)(C)[C@H](NC(=O)c3ccc(N4CCC(CN5CCN(c6ccc(C(=O)N[C@H]7CCC(=O)NC7=O)c(F)c6)CC5)CC4)cc3)C2(C)C)ccc1C#N [Compound A]
9720 ng·h/mL

###

- protocolNotes: food/PPI effect on single-dose PK in healthy volunteers (phase 1)
- Format: in vivo, human
- testContext: male, human, plasma, oral, 300 mg, 300 mg alone, fed; read-out: median Tmax
reportedEndpoint: Tmax (h)
State the answer as a number, implicitly in h.

Which measured Tmax value corresponds to COc1cc(O[C@H]2C(C)(C)[C@H](NC(=O)c3ccc(N4CCC(CN5CCN(c6ccc(C(=O)N[C@H]7CCC(=O)NC7=O)c(F)c6)CC5)CC4)cc3)C2(C)C)ccc1C#N ?
7

###

- protocolNotes: preliminary PK in mCRPC participants (Phase 1/2)
- Type: in vivo, human
- testContext: male, human, plasma, oral, 400 mg, 400 mg QD, Mean (CV %); read-out: Cmax Day 21
reportedEndpoint: Cmax (ng/mL)
Please reply with the bare figure in ng/mL and do not write the unit itself.

Quick one: Cmax for COc1cc(O[C@H]2C(C)(C)[C@H](NC(=O)c3ccc(N4CCC(CN5CCN(c6ccc(C(=O)N[C@H]7CCC(=O)NC7=O)c(F)c6)CC5)CC4)cc3)C2(C)C)ccc1C#N ?
526

###

- protocolNotes: preliminary PK in mCRPC participants (Phase 1/2)
- Type: in vivo, human
- testContext: human, plasma, oral, 20 mg, 20 mg QD, individual value (n = 1); read-out: AUC0-24 Day 1
reportedEndpoint: AUC(0-t) (ng·h/mL)
Give a bare numeral; the unit ng·h/mL is implied.

I would be grateful if you could share the reported AUC(0-t) for COc1cc(O[C@H]2C(C)(C)[C@H](NC(=O)c3ccc(N4CCC(CN5CCN(c6ccc(C(=O)N[C@H]7CCC(=O)NC7=O)c(F)c6)CC5)CC4)cc3)C2(C)C)ccc1C#N .
178

###

- protocolNotes: preliminary PK in mCRPC participants (Phase 1/2)
- Assay type: in vivo, human
- testContext: male, human, plasma, oral, 300 mg, 300 mg QD, Mean (CV %); read-out: Cmax Day 21
reportedEndpoint: Cmax (ng/mL)
# number only, unit ng/mL dropped from output

Given the entry COc1cc(O[C@H]2C(C)(C)[C@H](NC(=O)c3ccc(N4CCC(CN5CCN(c6ccc(C(=O)N[C@H]7CCC(=O)NC7=O)c(F)c6)CC5)CC4)cc3)C2(C)C)ccc1C#N , report its measured Cmax.
672
